Items are presented alongside their recorded glycan array binding signal (z-score).
targetUnderTest: Gal(b1-3)Gal(b1-4)GlcNAc
protocolText: glycan array binding signal (z-score within array); higher = stronger binding
testConditions: glycan notation: IUPAC condensed, linker removed
This excerpt belongs to a sample that is enriched for the strongest signals.
Give the figure by itself; no unit, no explanation.

Query: Report glycan array binding signal (z-score) for TAL6-4LysM (Trichoderma atroviride) (protein) AADSIPSISPTGIITPTPTQSGMVSNCNKFYDVHSNDGCSAIASSQHVDLSSLYKWNPAIKTDCSGLQASVYVCIGILTTSMSTTSKLPTTTSKPSTTSKPPTGITTPTPTQSGMVKNCNKFYDVHSGDGCSAIASSQKVNLSSFYLWNPAVKTDCSGLQASVFVCIGTLTTSMSTTTSKLPTTTSKPSTTSKPPTGIITPTPTQNGMVKNCNKFYDVHSGDGCSAIASSQKVNLSSFYLWNPAVKTDCSGLQASVFVCVGTATTTTAAGITTPTPTQSGMVSGCNKFYDVHAGDGCSAIASSQKIALSSLYKWNPAVKTDCSGLQASVYICIGVGNAAAARVTGALEQKLISEEDLNSAVDHHHHHH please.
Result: 2.92

***
Query: Need glycan array binding signal (z-score) of OVGAL11 (Ovis aries), AAF64320 (protein) MDSLPNPYLQSVSLTVCYMVKIKANLLSAFGKNPELQVDFGTGTGQGGNIPFRFWYCDGMVVMNTFTDGSWQKEEKVLTDAFVPGQPFELQFLVLEKEYQVFVKNKPICQFAHRLPLQSVKMLDVRGDIVLTSVDTL , thanks.
Result: -0.063

Query: Then Langerin CRD (Homo sapiens), Q9UJ71 (protein) QVVSQGWKYFKGNFYYFSLIPKTWYSAEQFCVSRNSHLTSVTSESEQEFLYKTAGGLIYWIGLTKAGMEGDWSWVDDTPFNKVQSVRFWIPGEPNNAGNNEHCGNIKAPSLQAWNDAPCDKTFLFICKRPYVPSEPSAWSHPQFEK ?
Result: -0.488
